Assay: Human HepG2 cell viability assay in 384 well format
Assay type: toxicity, cell-based
Design: dose 125 nL, time 70.5 hour; concentration not given beside the values
Details: HepG2 cells, read-out: Inhibition
Overview of recorded cytotoxicity at 70.5 h for various molecules

MOLECULE: CCCC(=O)N1CCC(c2ncc3c(n2)CCNC3)CC1
cytotoxicity at 70.5 h (%): -5.64
--
MOLECULE: CCC1=N[C@@]2(CC[C@@H]3CN(Cc4ccccc4F)C[C@@H]32)C(=O)N1
cytotoxicity at 70.5 h (%): -6.13
--
MOLECULE: Cc1ccccc1N1CC2(CCN(Cc3nccn3C)C2)CC1=O (centres undefined)
cytotoxicity at 70.5 h (%): -13.1
--
MOLECULE: Cc1cccc(-c2nc(C)nn2CC(=O)NC(C)C)c1
cytotoxicity at 70.5 h (%): 18.6
--
MOLECULE: Cc1ncncc1C(=O)N1CCOC(c2nc(C(C)C)n[nH]2)C1 (centres undefined)
cytotoxicity at 70.5 h (%): -4.74
--
MOLECULE: Cc1cnn(CC2CCCCN2C(=O)c2n[nH]c3ccccc23)c1 (centres undefined)
cytotoxicity at 70.5 h (%): 16
--
MOLECULE: O=C(O)c1cc(-c2cccs2)nc2c(Cl)cnn12
cytotoxicity at 70.5 h (%): -5.65
--
MOLECULE: Cc1noc(C)c1CN(C)Cn1nccc1-c1cccnc1
cytotoxicity at 70.5 h (%): 10.8
--
MOLECULE: Cc1cnn(CCNCc2c(C)nn(Cc3ccccc3)c2C)c1
cytotoxicity at 70.5 h (%): 23.6
--
MOLECULE: Cc1cc(NC(=O)C(c2cccc(F)c2)N2CCOCC2)ccn1 (centres undefined)
cytotoxicity at 70.5 h (%): 13.3
--
MOLECULE: Cc1n[nH]c(C)c1NC(=O)CN1CCCC1Cn1cncn1 (centres undefined)
cytotoxicity at 70.5 h (%): -0.918
--
MOLECULE: CN(CCc1ncnn1-c1ccccc1Cl)C1CCS(=O)(=O)C1 (centres undefined)
cytotoxicity at 70.5 h (%): -17.7
--
MOLECULE: Cc1cc(C)n(CC2CN(Cc3nc4ccccc4s3)CCO2)n1 (centres undefined)
cytotoxicity at 70.5 h (%): -5.7
--
MOLECULE: CN(CCCc1cnn(C)c1)c1nccc(-c2cc(C(=O)O)ccn2)n1
cytotoxicity at 70.5 h (%): -5.12
--
MOLECULE: CC(=O)N1CCc2ccc(S(=O)(=O)N3CCCCC3C)cc21 (centres undefined)
cytotoxicity at 70.5 h (%): 0.13
--
MOLECULE: Cc1cccn2c(=O)cc(OC(=O)c3ccccc3Cl)nc12
cytotoxicity at 70.5 h (%): -10.1
--
MOLECULE: CC(C)N(C)C(=O)COc1ccc(-c2noc(C3CCCO3)n2)cc1 (centres undefined)
cytotoxicity at 70.5 h (%): 5.4
--
MOLECULE: CS(=O)(=O)Cc1ccc(C(=O)NCC2Cc3ccccc3O2)cc1 (centres undefined)
cytotoxicity at 70.5 h (%): -0.3
--
MOLECULE: Cn1cnc2c1C(COCC1CCOCC1)CN(C(=O)c1ccco1)C2 (centres undefined)
cytotoxicity at 70.5 h (%): -8.23
--
MOLECULE: O=C1CC2(CCN(CCO)C2)CN1c1cccc(F)c1 (centres undefined)
cytotoxicity at 70.5 h (%): -10.9
--
MOLECULE: CCC(NS(=O)(=O)c1ccc(C(=O)NC2CC2)cc1)c1cnn(C)c1 (centres undefined)
cytotoxicity at 70.5 h (%): -8.25
--
MOLECULE: O=C(Cn1ccc2ccccc21)Nc1cc(N2CCOCC2)ncn1
cytotoxicity at 70.5 h (%): 14.8
--
MOLECULE: CCS(=O)(=O)N1CCOC2(CCCN(c3cccc(C#N)c3)C2)C1 (centres undefined)
cytotoxicity at 70.5 h (%): -5.28
--
MOLECULE: COc1cc(C2C3=C(COC3=O)Nc3[nH]nc(C)c32)cc(Br)c1O (centres undefined)
cytotoxicity at 70.5 h (%): 2.06
